- Tested on: HepG2
- Assay remarks: cells
- Format: functional, cell-based
- Setup conditions: Homo sapiens, HepG2, 72 h
- Description: Cytotoxicity against human Hep-G2 cells assessed as inhibition of cell proliferation measured after 72 hrs by ATPlite assay
pIC50: −log10 of the molar value.
Would you please tag the item Condition met when its pIC50 is 5 or above, and Condition not met when it is below?

Threshold query (pIC50 >= 5) on `O=C(CCCCCCC(=O)Nc1ccc(C(=O)NC2CCNCC2)cc1)NO`
Condition not met

Threshold query (pIC50 >= 5) on `CC(C)(C)OC(=O)N1CCC(NC(=O)c2ccc(NC(=O)CCCCCCC(=O)NO)cc2)CC1`
Condition not met

Threshold query (pIC50 >= 5) on `O=C(CCCCCCC(=O)Nc1ccc(C(=O)NCCN2CCOCC2)cc1)NO`
Condition not met

Threshold query (pIC50 >= 5) on `CCN(CC)c1ccc(NC(=O)CCCCCCC(=O)NO)cc1`
Condition met

New cases:
Threshold query (pIC50 >= 5) on `CCC(CC)CCNC(=O)c1ccc(NC(=O)CCCCCCC(=O)NO)cc1`
Condition not met

---

- Target or system: Histone deacetylase
- Assay remarks: Inhibition of human HDAC using human HeLa cell nuclear extract measured after 60 mins by fluorescence assay
- Format: tissue-based
Give IC50 for every item shown.
Include the unit right after the number.

Requested field: IC50. Item: `CCN(CC)CCNC(=O)c1ccc(NC(=O)CCCCCCC(=O)NO)cc1`
0.06 µM

Requested field: IC50. Item: `CCN(CC)c1ccc(NC(=O)CCCCCCC(=O)NO)cc1`
0.21 µM

Requested field: IC50. Item: `CCN(CC)CCCNC(=O)c1ccc(NC(=O)CCCCCCC(=O)NO)cc1`
0.16 µM

Requested field: IC50. Item: `O=C(CCCCCCC(=O)Nc1ccc(C(=O)NC2CCNCC2)cc1)NO`
0.14 µM

Next compound, please.
Requested field: IC50. Item: `O=C(CCCCCCC(=O)Nc1ccc(C(=O)NCCN2CCOCC2)cc1)NO`
0.23 µM

---

- Assay remarks: Microsomal stability in human liver microsomes assessed as parent compound remaining after 1 hrs
- Assay type: ADME, Microsome
- Setup conditions: read-out: Stability
Readout: remaining at 1 h
Include the unit right after the number.

Requested field: remaining at 1 h. Item: `O=C(CCCCCCC(=O)Nc1ccc(C(=O)NC2CCNCC2)cc1)NO`
100%

---

- Target or system: Histone deacetylase 2 (Homo sapiens, UniProt Q92769)
- Sequence (Q92769 whole entry): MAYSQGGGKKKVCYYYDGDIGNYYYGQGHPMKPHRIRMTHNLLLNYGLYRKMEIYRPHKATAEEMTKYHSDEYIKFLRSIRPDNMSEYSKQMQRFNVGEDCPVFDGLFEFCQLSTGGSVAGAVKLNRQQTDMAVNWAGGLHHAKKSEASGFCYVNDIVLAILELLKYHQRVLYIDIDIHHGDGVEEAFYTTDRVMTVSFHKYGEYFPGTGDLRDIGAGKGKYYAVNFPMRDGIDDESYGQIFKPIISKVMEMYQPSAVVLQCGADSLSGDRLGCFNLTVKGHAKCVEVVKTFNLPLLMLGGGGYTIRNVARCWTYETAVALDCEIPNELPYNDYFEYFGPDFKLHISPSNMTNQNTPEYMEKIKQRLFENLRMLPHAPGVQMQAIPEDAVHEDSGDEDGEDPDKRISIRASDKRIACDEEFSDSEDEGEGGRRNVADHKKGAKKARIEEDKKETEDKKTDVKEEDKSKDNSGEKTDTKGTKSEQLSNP
- Assay remarks: Inhibition of human recombinant HDAC2 using Tosyl-Gly-ProLys(Ac)-AMC as substrate measured after 60 mins by fluorescence assay
Readout: IC50 (nM)
One number for each entry, in nM.

Requested field: IC50. Item: `CCN(CC)CCNC(=O)c1ccc(NC(=O)CCCCCCC(=O)NO)cc1`
80

New cases:
Requested field: IC50. Item: `O=C(CCCCCCC(=O)Nc1ccc(C(=O)NC2CCNCC2)cc1)NO`
270

---

- Target or system: Protein deacetylase HDAC6 (Homo sapiens)
- Sequence (Q9UBN7 whole entry): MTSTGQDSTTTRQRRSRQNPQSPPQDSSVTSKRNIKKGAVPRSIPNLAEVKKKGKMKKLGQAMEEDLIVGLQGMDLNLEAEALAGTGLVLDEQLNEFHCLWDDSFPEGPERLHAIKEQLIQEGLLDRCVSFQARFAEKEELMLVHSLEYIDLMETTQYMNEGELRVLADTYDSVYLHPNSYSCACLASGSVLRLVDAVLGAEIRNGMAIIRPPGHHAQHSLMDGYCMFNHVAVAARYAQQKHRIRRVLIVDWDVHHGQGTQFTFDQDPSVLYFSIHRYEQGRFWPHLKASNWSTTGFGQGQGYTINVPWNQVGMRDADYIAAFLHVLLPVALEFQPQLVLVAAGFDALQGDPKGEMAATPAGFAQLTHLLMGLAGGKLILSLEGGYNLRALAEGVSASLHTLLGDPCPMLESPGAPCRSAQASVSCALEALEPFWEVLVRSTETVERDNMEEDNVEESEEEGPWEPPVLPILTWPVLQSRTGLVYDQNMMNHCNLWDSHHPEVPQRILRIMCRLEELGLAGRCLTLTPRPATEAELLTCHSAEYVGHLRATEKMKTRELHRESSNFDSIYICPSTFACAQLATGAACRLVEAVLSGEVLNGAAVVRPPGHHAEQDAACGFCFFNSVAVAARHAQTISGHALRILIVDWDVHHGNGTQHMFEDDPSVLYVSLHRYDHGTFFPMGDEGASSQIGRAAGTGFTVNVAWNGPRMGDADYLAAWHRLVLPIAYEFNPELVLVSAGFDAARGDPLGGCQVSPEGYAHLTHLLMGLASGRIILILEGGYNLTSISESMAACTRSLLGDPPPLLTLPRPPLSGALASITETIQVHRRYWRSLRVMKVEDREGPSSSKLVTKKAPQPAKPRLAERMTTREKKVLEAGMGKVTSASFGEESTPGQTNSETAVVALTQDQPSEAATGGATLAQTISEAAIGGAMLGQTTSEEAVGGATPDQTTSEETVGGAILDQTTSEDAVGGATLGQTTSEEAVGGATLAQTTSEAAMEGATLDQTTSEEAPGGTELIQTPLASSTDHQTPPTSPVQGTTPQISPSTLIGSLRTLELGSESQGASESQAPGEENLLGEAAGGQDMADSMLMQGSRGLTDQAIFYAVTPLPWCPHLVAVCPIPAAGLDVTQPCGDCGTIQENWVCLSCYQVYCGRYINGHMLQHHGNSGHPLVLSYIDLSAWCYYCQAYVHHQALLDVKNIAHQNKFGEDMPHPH
- Assay remarks: Inhibition of human recombinant HDAC6 using Tosyl-Gly-ProLys(Ac)-AMC as substrate measured after 60 mins by fluorescence assay
Give IC50 for every item shown.
Answers are plain numbers, in µM.

Which IC50 is reported with Protein deacetylase HDAC6 (Homo sapiens) for this entry: `CCN(CC)CCNC(=O)c1ccc(NC(=O)CCCCCCC(=O)NO)cc1` ?
0.014

New cases:
Which IC50 is reported with Protein deacetylase HDAC6 (Homo sapiens) for this entry: `O=C(CCCCCCC(=O)Nc1ccc(C(=O)NC2CCNCC2)cc1)NO` ?
0.019
